- Measurement Target: P3-17
- Assay Procedure: BLI
Ends that are not written are not given here.
Quantity: Kd (nM)

binder="NPDPNANPNVDPNAN (also: biotinylated, position not given here) [Biotinylated junctional peptide Pep21 (PfCSP peptide 21)]" quantity=Kd unit_name=nM readout_value=17.8

Entry source: paper PMC12269619
